Biological target: human muscarinic M1 receptor (Homo sapiens, UniProt P11229)
Construct: expressed in transfected cells; host or cells: CHO-K1 cells; expression vector pcDNA3; calcium phosphate method; geneticin selection
Sequence (P11229 1-460): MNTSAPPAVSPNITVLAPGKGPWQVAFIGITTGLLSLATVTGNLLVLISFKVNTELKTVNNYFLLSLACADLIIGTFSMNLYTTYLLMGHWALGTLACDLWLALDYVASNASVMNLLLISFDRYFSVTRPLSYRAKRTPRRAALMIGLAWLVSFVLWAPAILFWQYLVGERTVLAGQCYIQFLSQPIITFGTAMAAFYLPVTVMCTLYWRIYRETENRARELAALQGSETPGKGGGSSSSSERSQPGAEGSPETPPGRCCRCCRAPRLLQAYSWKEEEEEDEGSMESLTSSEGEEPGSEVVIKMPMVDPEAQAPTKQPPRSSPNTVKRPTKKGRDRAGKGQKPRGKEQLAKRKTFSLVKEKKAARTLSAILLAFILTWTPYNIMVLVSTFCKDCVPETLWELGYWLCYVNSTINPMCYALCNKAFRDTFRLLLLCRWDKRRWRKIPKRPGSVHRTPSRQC
Assay: EAR test system, response to carbachol, M1 receptor-transfected CHO-K1 cells
Type: cell-based
Conditions: significance class of effect on EAR due to carbachol
Endpoint: MODULATORY EFFECT

[
  {
    "Substance": "13 (FSFQCKSINYEALGY) [compound 13]",
    "Result": "** (** 0.001 < ρ ≦ 0.01)"
  },
  {
    "Substance": "17 (FNLSVKQWNYRAYNL) [compound 17]",
    "Result": "** (** 0.001 < ρ ≦ 0.01)"
  },
  {
    "Substance": "14 (FSFGVKSWQYHALGY) [compound 14]",
    "Result": "* (* 0.01 < ρ ≦ 0.05)"
  },
  {
    "Substance": "16 (ISFNKCTWSFERYSL) [compound 16]",
    "Result": "* (* 0.01 < ρ ≦ 0.05)"
  }
]

Reference source for all entries: patent US7228238B2
